- target desc: human GLP-1 receptor (GLP-1R) (human, UniProt P43220 24-463)
- assay info: cell-based or functional assay
Numbered stars: 1 amine (or outer) side, 2 acyl side, 3 side chain; on linkers, the order of the positions; unused ones are H or OH. Square brackets hold non-standard residues; d marks the D form. Side chains are listed from the residue outwards. Ends that are not written are not given here. * marks the point of attachment. C20 diacid = O=C(O)CCCCCCCCCCCCCCCCCCC(=O)*; C18 diacid = O=C(O)CCCCCCCCCCCCCCCCC(=O)*; αMePhe(2-F) = C[C@](N)(Cc1ccccc1F)C(=O)O; γGlu = O=C(O)[C@H](CCC(=O)[*:2])N[*:1]; Desaminohistidyl = O=C(CCc1c[nH]cn1)*; αMeF = C[C@](N)(Cc1ccccc1)C(=O)O; αMeP = C[C@@]1(C(=O)O)CCCN1; cTA = not defined here; AEEA = NCCOCCOCC(=O)O; Aib = CC(C)(N)C(=O)O
Would you mind labelling by hGLP1R cAMP Rel EC50? At or over 0.06 nM is t, under is f.

• YXEGTXTSDXSIXLDEKAQXEFIXYLIEGGPSSGAPPPS (Y-Aib-EGT-αMeF(2F)-TSD-(D-His)-SI-αMeF-LDEK((2-[2-(2-Amino-ethoxy)-ethoxy]-acetyl)2-(γ-Glu)-CO-(CH2)18-CO2H)AQ-Aib-EFI-(D-Glu)-YLIEGGPSSGAPPPS-NH2) [Example 185] = t
• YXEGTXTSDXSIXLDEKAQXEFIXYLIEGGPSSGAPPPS (Y-Aib-EGT-αMeF(2F)-TSD-(D-Tyr)-SI-αMeF-LDEK((2-[2-(2-Amino-ethoxy)-ethoxy]-acetyl)2-(γ-Glu)-CO-(CH2)18-CO2H)AQ-Aib-EFI-(D-Glu)-YLIEGGPSSGAPPPS-NH2) [Example 184] = t
• Y[Aib]EGT[αMeF]TSDASIXLDKKAQ[Aib]AFIEYLIEGGPSSGAPPPS-NH2 (not fully specified (residues 13, 17); printed as Y-Aib-EGT-αMeF-TSDASI-αMeF-LDKK((2-[2-(2-Amino-ethoxy)-ethoxy]-acetyl)2-(γ-Glu)-CO-(CH2)18-CO2H)AQ-Aib-AFIEYLIEGGPSSGAPPPS-NH2) [Example 145] = f

Data request: Assess whether reported hGLP1R cAMP Rel EC50 for YXEGTXTSDHSILLDKKAQXAFIEYLIEGGPSSGAPPPS (Y-Aib-EGT-αMeF-TSDHSILLDKK((2-[2-(2-Amino-ethoxy)-ethoxy]-acetyl)2-(γ-Glu)-CO-(CH2)18-CO2H)AQ-Aib-AFIEYLIEGGPSSGAPPPS-NH2) [Example 128] sits at 0.06 nM or higher.
Data returned: t

Data request: Could you tell me if the measured hGLP1R cAMP Rel EC50 of Y[Aib][cTA]GT[αMeF]TSDYSIXLDEK([AEEA-AEEA-γGlu-C20 diacid])AQ[Aib]AFIEYLIEGGPSSGAPPPS-NH2 (not fully specified (residue 13); printed as Y-Aib-cTA-GT-αMeF-TSDYSI-αMeF-LDEK((2-[2-(2-Amino-ethoxy)-ethoxy]-acetyl)2-(γ-Glu)-CO-(CH2)18-CO2H)AQ-Aib-AFIEYLIEGGPSSGAPPPS-NH2) [Example 120] reaches 0.06 nM or more?
Data returned: t

Data request: Hi, just wondering whether [Desaminohistidyl][αMeP]EGTFTSDYSILLDEK([AEEA-AEEA-γGlu-C20 diacid])AQQAFIEYLIEGGPSSGAPPPS-NH2 [Example 201] shows hGLP1R cAMP Rel EC50 of 0.06 nM or higher.
Data returned: f

Data request: Quick check, hGLP1R cAMP Rel EC50 >= 0.06 nM? Y[Aib]EGT[αMePhe(2-F)]TSDYSIXLDEK([AEEA-AEEA-γGlu-C18 diacid])AQ[Aib]EFI[dE]YLIEGG-NH2 (not fully specified (residue 13); printed as Y-Aib-EGT-αMeF(2F)-TSDYSI-αMeF-LDEK((2-[2-(2-Amino-ethoxy)-ethoxy]-acetyl)2-(γ-Glu)-CO-(CH2)16-CO2H)AQ-Aib-EFI-(D-Glu)-YLIEGG-NH2) [Example 220]
Data returned: f

Data request: Decide: is the reported value of hGLP1R cAMP Rel EC50 for Y[Aib]EGT[αMePhe(2-F)]TSDYSIXLDEKAQ[Aib]EFISYLIEGGPSSGAPPPS-NH2 (not fully specified (residues 13, 17); printed as Y-Aib-EGT-αMeF(2F)-TSDYSI-αMeF-LDEK((2-[2-(2-Amino-ethoxy)-ethoxy]-acetyl)2-(γ-Glu)-CO-(CH2)18-CO2H)AQ-Aib-EFISYLIEGGPSSGAPPPS-NH2) [Example 150] equal to or greater than 0.06 nM?
Data returned: f

Data request: Kindly determine if hGLP1R cAMP Rel EC50 recorded for YXEGTXTSDHSIXLDEKAQXTFIXYLIEGGPSSGAPPPS (Y-Aib-EGT-αMeF(2F)-TSDHSI-αMeF-LDEK((2-[2-(2-Amino-ethoxy)-ethoxy]-acetyl)2-(γ-Glu)-CO-(CH2)14-CO2H)AQ-Aib-TFI-(D-Glu)-YLIEGGPSSGAPPPS-NH2) [Example 170] is above or exactly 0.06 nM.
Data returned: t

Data request: Confirm if hGLP1R cAMP Rel EC50 reported for the binder Y[Aib]EGT[αMeF]TSDYSIXLDKKAQ[Aib]HFIEYLIEGGPSSGAPPPS-NH2 (not fully specified (residues 13, 17); printed as Y-Aib-EGT-αMeF-TSDYSI-αMeF-LDKK((2-[2-(2-Amino-ethoxy)-ethoxy]-acetyl)2-(γ-Glu)-CO-(CH2)18-CO2H)AQ-Aib-HFIEYLIEGGPSSGAPPPS-NH2) [Example 142] is 0.06 nM or above.
Data returned: f

Data request: hGLP1R cAMP Rel EC50 >= 0.06 nM for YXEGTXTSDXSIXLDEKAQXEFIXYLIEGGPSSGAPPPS (Y-Aib-EGT-αMeF(2F)-TSD-3Pal-SI-αMeF-LDEK((2-[2-(2-Amino-ethoxy)-ethoxy]-acetyl)2-(γ-Glu)-CO-(CH2)18-CO2H)AQ-Aib-EFI-Aib-YLIEGGPSSGAPPPS-NH2) [Example 188] ?
Data returned: t

Data request: Determine whether this binder has hGLP1R cAMP Rel EC50 no lower than 0.06 nM: Y[Aib]EGT[αMePhe(2-F)]TSDYSIXLDEK([AEEA-AEEA-γGlu-C18 diacid])AQ[Aib]EFI[dE]YLIEGGPSSG-NH2 (not fully specified (residue 13); printed as Y-Aib-EGT-αMeF(2F)-TSDYSI-αMeF-LDEK((2-[2-(2-Amino-ethoxy)-ethoxy]-acetyl)2-(γ-Glu)-CO-(CH2)16-CO2H)AQ-Aib-EFI-(D-Glu)-YLIEGGPSSG-NH2) [Example 219]
Data returned: f
